Origin of the recorded values: paper PMC9977057

Tested on: Gastric (SNU-16) Patch number (ATCC CRL-5822)
Test: SRB cytotoxicity assay, gastric cancer cells SNU-16
Assay type: cell-based
Details: Homo sapiens, SNU-16, 72 h incubation
Procedure: A- Cell culture. The cells were obtained from the Egyptian Holding Company for Biological Products & Vaccines (VACSERA), Giza, Egypt, then maintained in the tissue culture unit. […] The cells were maintained as monolayer culture by serial sub‐culturing. […] Sulforhodamine B(SRB) assay method was used to evaluate cytotoxicity. […] Each well’s optical density (OD) was measured spectrophotometrically at 564 nm; by using an ELISA microplate reader (ChroMate‐4300, FL, USA). […]

molecule: CCOC(=O)C(=NNc1ccccc1)NN=C1CCc2cc(Br)ccc21
target system: Gastric (SNU-16) Patch number (ATCC CRL-5822)
unit symbol: µM
IC50: 16.6
//
molecule: Cc1ccc(-c2csc(NN=C3CCc4cc(Br)ccc43)n2)cc1 [10b]
target system: Gastric (SNU-16) Patch number (ATCC CRL-5822)
unit symbol: µM
IC50: 18.3
//
molecule: O=C(Nc1ccccc1)C(=NNc1ccccc1)NN=C1CCc2cc(Br)ccc21
target system: Gastric (SNU-16) Patch number (ATCC CRL-5822)
unit symbol: µM
IC50: 9.7
//
molecule: CCN(CC)CCNC(=O)c1c(C)[nH]c(/C=C2\C(=O)Nc3ccc(F)cc32)c1C [sunitinib, reference compound]
target system: Gastric (SNU-16) Patch number (ATCC CRL-5822)
unit symbol: µM
IC50: 8.45
//
molecule: Brc1ccc2c(c1)CCC2=NNc1nc(-c2ccccc2)cs1 [10a]
target system: Gastric (SNU-16) Patch number (ATCC CRL-5822)
unit symbol: µM
IC50: 20
//
molecule: Cc1cccc(N=Nc2sc(NN=C3CCc4cc(Br)ccc43)nc2C)c1
target system: Gastric (SNU-16) Patch number (ATCC CRL-5822)
unit symbol: µM
IC50: 12.3
